This section presents binders with their documented pEC50 values.
Molecular target: T1, human PD-L1 expressed on CHO-K1 cells (Genscript, Cat #M00543) (human, UniProt Q9NZQ7 19-290)
T1 construct: also called PD-L1 cell line
T1 sequence (Q9NZQ7 19-290, one chain of several): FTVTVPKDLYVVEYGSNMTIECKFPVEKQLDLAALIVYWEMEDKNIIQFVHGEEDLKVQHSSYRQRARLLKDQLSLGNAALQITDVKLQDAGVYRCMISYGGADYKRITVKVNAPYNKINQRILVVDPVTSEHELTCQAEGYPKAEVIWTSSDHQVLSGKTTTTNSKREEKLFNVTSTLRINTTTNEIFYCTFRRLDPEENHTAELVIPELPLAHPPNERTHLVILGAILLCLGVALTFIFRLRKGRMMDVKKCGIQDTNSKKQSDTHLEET
Assay: FACS, CHO-K1/human PD-L1 cells
# pEC50: negative log10 of molar concentration; output just the value

Worked examples, 2 binders total:
BINDER	pEC50
53C1_VH3-VL1.M1 (antibody, human IgG1, kappa, N297A, V domains shown, Humanized, hIgG1 effector-less Fc, kappa; see recheck on K24R in the .M1 light chain) VH: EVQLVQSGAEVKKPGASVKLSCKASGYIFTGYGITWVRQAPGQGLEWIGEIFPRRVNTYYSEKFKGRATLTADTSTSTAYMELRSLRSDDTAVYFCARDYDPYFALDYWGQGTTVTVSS VL: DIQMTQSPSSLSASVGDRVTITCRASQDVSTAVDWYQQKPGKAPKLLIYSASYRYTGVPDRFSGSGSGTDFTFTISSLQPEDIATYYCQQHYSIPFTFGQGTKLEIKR	8.70
29A8_VH5-VL1.M1 (antibody, human IgG1, kappa, N297A, V domains shown, Humanized, hIgG1 effector-less Fc, kappa; see recheck on K24R in the .M1 light chain) VH: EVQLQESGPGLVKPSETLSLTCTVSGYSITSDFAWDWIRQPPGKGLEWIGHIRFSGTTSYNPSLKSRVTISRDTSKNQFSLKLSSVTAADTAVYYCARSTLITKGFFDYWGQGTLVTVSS VL: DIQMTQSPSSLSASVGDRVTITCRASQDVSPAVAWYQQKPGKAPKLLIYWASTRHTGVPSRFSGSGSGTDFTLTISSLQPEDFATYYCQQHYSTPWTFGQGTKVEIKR	8.88

Here's the next entry for you.
Data request, read-out pEC50, for 53C1_chimeric (antibody, human IgG1, kappa, N297A, V domains shown, Human IgG1 with effector-less Fc mutations, human kappa; also called chimeric 53C1F3D4) VH: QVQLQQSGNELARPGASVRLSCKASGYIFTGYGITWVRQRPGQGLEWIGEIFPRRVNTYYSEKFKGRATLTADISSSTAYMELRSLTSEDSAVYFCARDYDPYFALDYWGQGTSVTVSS VL: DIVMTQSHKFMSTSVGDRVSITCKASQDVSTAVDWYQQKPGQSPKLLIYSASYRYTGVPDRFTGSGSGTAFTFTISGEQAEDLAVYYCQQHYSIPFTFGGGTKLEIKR
8.75
